- Tested on: Wnt activity (Sp5-Luc reporter, SW480 colon carcinoma cells)
- EXPERIMENT SUMMARY: Wnt activity screening assay, Sp5-Luc reporter gene in SW480 cells
- Format: cell-based
- TEST CONTEXT: Homo sapiens, SW480; read-out: percent inhibition at 10 μM
- Description: The screening assay for Wnt activity is described as follows. […] SW480 colon carcinoma cells were transduced with a lentiviral vector expressing luciferase with a human Sp5 promoter consisting of a sequence of eight TCF/LEF binding sites. […] Following incubation, 20 μl of BrightGlo luminescence reagent (Promega) was added to each well of the 384-well assay plates. The plates were placed on an orbital shaker for 2 min and then luminescence was quantified using the Envision (Perkin Elmer) plate reader. […]
REPORTED PROPERTY: inhibition at 10 µM (%)
API: value field is a number in %; no unit string.

Sample O=C(CC1CCNCC1)Nc1cncc(-c2cnc3[nH]nc(-c4cc5c(-c6cccnc6)cncc5[nH]4)c3c2)c1 — what was its inhibition at 10 µM?
0

How about FC1(F)CCN(Cc2cncc(-c3cnc4[nH]nc(-c5cc6c(-c7ccncc7)cncc6[nH]5)c4c3)c2)C1 ?
40.8

One more compound: Cc1ncc(-c2cnc3[nH]nc(-c4cc5c(-c6ccncc6)cncc5[nH]4)c3c2)n1C
7.1

What do you get for CC(C)Nc1cncc(-c2cnc3[nH]nc(-c4cc5c(-c6ccncc6)cncc5[nH]4)c3c2)c1 ?
15.5

Another compound to check: CN(C)c1cncc(-c2cnc3[nH]nc(-c4cc5c(-c6ccncc6)cncc5[nH]4)c3c2)c1
2.5

Now consider O=C(Nc1cncc(-c2cnc3[nH]nc(-c4cc5c(-c6cccc(F)c6)cncc5[nH]4)c3c2)c1)c1ccccc1 and answer again.
22.5

How about this compound: O=C(Nc1cncc(-c2cnc3[nH]nc(-c4cc5c(-c6ccncc6)cncc5[nH]4)c3c2)c1)C1CCC1
7

====

- Test system: primary human mesenchymal stem cells (hMSCs)
- EXPERIMENT SUMMARY: Induction of chondrogenesis in hMSCs (nodule count)
- Type: cell-based
- TEST CONTEXT: 6 days, relative to TGF-β3 (10 ng/mL) positive control, read-out: Max. Activity as % TGF-β3 activity
Please go through the items and note down their Emax.
Hi! Could you send only the number? It should be in %, unit omitted.

Quick one: Emax for Fc1ccccc1-c1cncc2[nH]c(-c3n[nH]c4ncc(-c5cn[nH]c5)cc34)cc12 ?
51

Another compound: CCCCC(=O)Nc1cncc(-c2cnc3[nH]nc(-c4cc5c(-c6ccncc6)cncc5[nH]4)c3c2)c1
70

Also CC(C)Nc1cncc(-c2cnc3[nH]nc(-c4cc5c(-c6cccc(F)c6)cncc5[nH]4)c3c2)c1 ?
104

Same question, CC(C)C(=O)Nc1cncc(-c2cnc3[nH]nc(-c4cc5c(-c6cc(F)cc(CNS(C)(=O)=O)c6)cncc5[nH]4)c3c2)c1 this time
60

Query FC1(F)CCN(Cc2cncc(-c3cnc4[nH]nc(-c5cc6c(-c7ccncc7)cncc6[nH]5)c4c3)c2)C1 next
37

Another compound to check: CN(C)CCOc1cncc(-c2cnc3[nH]nc(-c4cc5c(-c6ccc(F)cc6)cncc5[nH]4)c3c2)c1
28

// same read-out, input: Nc1cncc(-c2cnc3[nH]nc(-c4cc5c(-c6ccncc6)cncc5[nH]4)c3c2)c1
32

====

- System: Wnt activity (Sp5-Luc reporter, SW480 colon carcinoma cells)
- EXPERIMENT SUMMARY: Wnt activity screening assay, Sp5-Luc reporter gene in SW480 cells
- Assay type: cell-based
- TEST CONTEXT: Homo sapiens, SW480; read-out: percent inhibition at 10 μM
REPORTED PROPERTY: inhibition at 10 µM

# lookup: inhibition at 10 µM of CC(C)(C)C(=O)Nc1cncc(-c2cnc3[nH]nc(-c4cc5c(-c6ccc(F)cc6)cncc5[nH]4)c3c2)c1
18.8%

Try this molecule next: c1ccc(-c2cnc3[nH]nc(-c4cc5c(-c6cccnc6)cncc5[nH]4)c3c2)nc1
44.2%

Do the same for Fc1cccc(-c2cncc3[nH]c(-c4n[nH]c5ncc(C6CCNCC6)cc45)cc23)c1 please
17.5%

Next entry: CCNCc1cncc(-c2cnc3[nH]nc(-c4cc5c(-c6cc(F)cc(CNS(C)(=O)=O)c6)cncc5[nH]4)c3c2)c1
12.8%

// same read-out, input: Cc1ccncc1-c1cnc2[nH]nc(-c3cc4c(-c5ccc(F)cc5)cncc4[nH]3)c2c1
49.4%

And O=C(Nc1cncc(-c2cnc3[nH]nc(-c4cc5c(-c6cccnc6)cncc5[nH]4)c3c2)c1)c1ccccc1 ?
0%

Please answer likewise for c1cncc(-c2cncc3[nH]c(-c4n[nH]c5ncc(-c6cncnc6)cc45)cc23)c1
11.9%

Next up: CC(C)C(=O)Nc1cncc(-c2cnc3[nH]nc(-c4cc5c(-c6cc(F)cc(CNS(C)(=O)=O)c6)cncc5[nH]4)c3c2)c1
49.8%

What do we get for Fc1ccc(-c2cncc3[nH]c(-c4n[nH]c5ncc(-c6ccccn6)cc45)cc23)cc1 ?
15.5%

Next record, please: O=C(Nc1cncc(-c2cnc3[nH]nc(-c4cc5c(N6CCCCC6)cncc5[nH]4)c3c2)c1)c1ccccc1
45.1%

What about this molecule? c1ncc(-c2cnc3[nH]nc(-c4cc5c(-c6ccoc6)cncc5[nH]4)c3c2)cn1
24.9%

And the next one, CN(C)CCOc1cncc(-c2cnc3[nH]nc(-c4cc5c(-c6ccc(F)cc6)cncc5[nH]4)c3c2)c1 ?
48.5%

Try the molecule CS(=O)(=O)NCc1cc(F)cc(-c2cncc3[nH]c(-c4n[nH]c5ncc(-c6cncc(CN7CCCC7)c6)cc45)cc23)c1
24%

Now this one: CS(=O)(=O)NCc1cc(F)cc(-c2cncc3[nH]c(-c4n[nH]c5ncc(-c6cncc(NC(=O)C7CCCCC7)c6)cc45)cc23)c1
12.3%

====

- Tested on: primary human mesenchymal stem cells (hMSCs)
- EXPERIMENT SUMMARY: Induction of chondrogenesis in hMSCs (nodule count)
- Type: cell-based
- TEST CONTEXT: 6 days, relative to TGF-β3 (10 ng/mL) positive control, read-out: Max. Activity as % TGF-β3 activity
Give measured Emax for each item. Keep answers brief.

Give its Emax value. Item: Fc1ccc(-c2cncc3[nH]c(-c4n[nH]c5ncc(-c6cncnc6)cc45)cc23)cc1
24%

Same question, Fc1cccc(-c2cncc3[nH]c(-c4n[nH]c5ncc(-c6cncc(CN7CCCCC7)c6)cc45)cc23)c1 this time
108%

For Fc1ccc(-c2cncc3[nH]c(-c4n[nH]c5ncc(-c6cncc(CN7CCCC7)c6)cc45)cc23)cc1 then?
133%

Also, CC(C)C(=O)Nc1cncc(-c2cnc3[nH]nc(-c4cc5c(-c6ccccc6F)cncc5[nH]4)c3c2)c1 please.
45%

Request: CCC(=O)Nc1cncc(-c2cnc3[nH]nc(-c4cc5c(-c6cccc(F)c6)cncc5[nH]4)c3c2)c1
113%

Could you do the same for c1cncc(-c2cncc3[nH]c(-c4n[nH]c5ncc(-c6cncnc6)cc45)cc23)c1 , please?
24%

Can you handle CC(C)CC(=O)Nc1cncc(-c2cnc3[nH]nc(-c4cc5c(-c6cc(F)cc(CNS(C)(=O)=O)c6)cncc5[nH]4)c3c2)c1 next?
46%

====

- Test system: primary human fibroblasts derived from IPF patients (LL29 cells)
- EXPERIMENT SUMMARY: Inhibition of fibrotic process, αSMA staining in TGF-β1 treated fibroblasts
- Assay type: cell-based
- TEST CONTEXT: Fibroblast, read-out: percent inhibition at 10 μM
- Description: Representative compounds were screened using primary human fibroblasts (derived from IPF patients) treated with TGF-β1 to determine their ability to inhibit the fibrotic process. LL29 cells are plated at 1,500 cells/well in 80 μL/well F12 medium supplemented with 1% Fetal Bovine Serum. […] Wells treated with TGF-31 and containing DMSO were used as controls. […]
REPORTED PROPERTY: inhibition at 10 µM (%)
Numbers only; they are read as %.

Query for primary human fibroblasts derived from IPF patients (LL29 cells): what inhibition at 10 µM does the record show for CCC(=O)Nc1cncc(-c2cnc3[nH]nc(-c4cc5c(-c6cccnc6)cncc5[nH]4)c3c2)c1 [Compound 85] ?
44.2

Note, next up: CC(C)CC(=O)Nc1cncc(-c2cnc3[nH]nc(-c4cc5c(-c6cc(F)cc(CNS(C)(=O)=O)c6)cncc5[nH]4)c3c2)c1 [Compound 478]
21.2

Same lookup for CS(=O)(=O)NCc1cc(F)cc(-c2cncc3[nH]c(-c4n[nH]c5ncc(-c6cncc(NC(=O)C7CCCCC7)c6)cc45)cc23)c1 [Compound 499] , please.
28.5

And what about the molecule CS(=O)(=O)NCc1cc(F)cc(-c2cncc3[nH]c(-c4n[nH]c5ncc(-c6cncc(CN7CCCC7)c6)cc45)cc23)c1 [Compound 490] ?
16.2

Also CN(C)c1cncc(-c2cnc3[nH]nc(-c4cc5c(-c6ccncc6)cncc5[nH]4)c3c2)c1 [Compound 119] ?
0

Note, next up: CN(C)CCOc1cncc(-c2cnc3[nH]nc(-c4cc5c(-c6ccc(F)cc6)cncc5[nH]4)c3c2)c1 [Compound 531]
11.4

What do you get for Fc1ccc(-c2cncc3[nH]c(-c4n[nH]c5ncc(-c6ccccn6)cc45)cc23)cc1 [Compound 56] ?
38.2

Repeat for the following molecule: O=C(Nc1cncc(-c2cnc3[nH]nc(-c4cc5c(-c6ccncc6)cncc5[nH]4)c3c2)c1)C1CCCC1 [Compound 134]
27.9

Quick one: CC(C)C(=O)Nc1cncc(-c2cnc3[nH]nc(-c4cc5c(-c6cc(F)cc(CNS(C)(=O)=O)c6)cncc5[nH]4)c3c2)c1 [Compound 485]
0

Likewise for c1cc2cc(-c3n[nH]c4ncc(-c5cncc(CN6CCCC6)c5)cc34)[nH]c2cn1 [Compound 266] ?
12.9

Can you check Cc1ncc(-c2cnc3[nH]nc(-c4cc5c(-c6ccncc6)cncc5[nH]4)c3c2)n1C [Compound 573] next?
46.7

Consider next the molecule CN(C)Cc1cncc(-c2cnc3[nH]nc(-c4cc5c(-c6ccoc6)cncc5[nH]4)c3c2)c1 [Compound 321] in the same way.
41.1

Check Fc1cccc(-c2cncc3[nH]c(-c4n[nH]c5ncc(C6CCNCC6)cc45)cc23)c1 [Compound 505] too.
0

Lookup O=C(Nc1cncc(-c2cnc3[nH]nc(-c4cc5c(-c6cccnc6)cncc5[nH]4)c3c2)c1)c1ccccc1 [Compound 95]
0

Next molecule: CCCCC(=O)Nc1cncc(-c2cnc3[nH]nc(-c4cc5c(-c6ccncc6)cncc5[nH]4)c3c2)c1 [Compound 131]
27.9
